This collection of values is drawn from patent US20050008615A1.

molecular target: IL-18 receptor (heterodimeric surface receptor composed of α- and β-chains) on KG-1 cells; test: cell-based or functional assay
test readout: NF-κB KG-1 EC50 (ng/ml), av. (ng/mL)

# binder, data value
rows = [
    ("human IL-18 C38S, C68D, L144C (SEQ ID NO:7) (ligand, Non-pegylated substitution mutant; also called IL-18 C144 (C38S, C68D, L144C)) YFGKLESKLSVIRNLNDQVLFIDQGNRPLFEDMTDSDSRDNAPRTIFIISMYKDSQPRGMAVTISVKDEKISTLSCENKIISFKEMNPPDNIKDTKSDIIFFQRSVPGHDNKMQFESSSYEGYFLACEKERDLFKLILKKEDECGDRSIMFTVQNED", 2.6),
    ("human IL-18 C38S, C68S, L144C (SEQ ID NO:9) (ligand, Non-pegylated substitution mutant; also called IL-18 C144 (C38S, C68S, L144C)) YFGKLESKLSVIRNLNDQVLFIDQGNRPLFEDMTDSDSRDNAPRTIFIISMYKDSQPRGMAVTISVKSEKISTLSCENKIISFKEMNPPDNIKDTKSDIIFFQRSVPGHDNKMQFESSSYEGYFLACEKERDLFKLILKKEDECGDRSIMFTVQNED", 2.6),
    ("human IL-18 C38S, C68D, D157C (SEQ ID NO:8) monopegylated at C157 with 30K PEG (ligand, methoxy polyethylene glycol maleimide, 30,000 Da, on Cys 157, also called IL-18 C157PEG30K; 157C-30K) YFGKLESKLSVIRNLNDQVLFIDQGNRPLFEDMTDSDSRDNAPRTIFIISMYKDSQPRGMAVTISVKDEKISTLSCENKIISFKEMNPPDNIKDTKSDIIFFQRSVPGHDNKMQFESSSYEGYFLACEKERDLFKLILKKEDELGDRSIMFTVQNEC", 68.5),
    ("human IL-18 C38S, C68S, L144C (SEQ ID NO:9) monopegylated at C144 with 20K PEG (ligand, methoxy polyethylene glycol maleimide, 20,000 Da, on Cys 144, also called IL-18 C144PEG20K) YFGKLESKLSVIRNLNDQVLFIDQGNRPLFEDMTDSDSRDNAPRTIFIISMYKDSQPRGMAVTISVKSEKISTLSCENKIISFKEMNPPDNIKDTKSDIIFFQRSVPGHDNKMQFESSSYEGYFLACEKERDLFKLILKKEDECGDRSIMFTVQNED", 81.5),
    ("human IL-18 C38S, C68D, D157C (SEQ ID NO:8) monopegylated at C157 with 20K PEG (ligand, methoxy polyethylene glycol maleimide, 20,000 Da, on Cys 157, also called IL-18 C157PEG20K; 157C-20K) YFGKLESKLSVIRNLNDQVLFIDQGNRPLFEDMTDSDSRDNAPRTIFIISMYKDSQPRGMAVTISVKDEKISTLSCENKIISFKEMNPPDNIKDTKSDIIFFQRSVPGHDNKMQFESSSYEGYFLACEKERDLFKLILKKEDELGDRSIMFTVQNEC", 37.3),
    ("human IL-18 C38S, C68D, D157C (SEQ ID NO:8) (ligand, Non-pegylated substitution mutant; also called IL-18 C157 (C38S, C68D, D157C)) YFGKLESKLSVIRNLNDQVLFIDQGNRPLFEDMTDSDSRDNAPRTIFIISMYKDSQPRGMAVTISVKDEKISTLSCENKIISFKEMNPPDNIKDTKSDIIFFQRSVPGHDNKMQFESSSYEGYFLACEKERDLFKLILKKEDELGDRSIMFTVQNEC", 4),
    ("human IL-18 C38S, C68D, L144C (SEQ ID NO:7) monopegylated at C144 with 20K PEG (ligand, methoxy polyethylene glycol maleimide, 20,000 Da, on Cys 144, also called IL-18 C144PEG20K) YFGKLESKLSVIRNLNDQVLFIDQGNRPLFEDMTDSDSRDNAPRTIFIISMYKDSQPRGMAVTISVKDEKISTLSCENKIISFKEMNPPDNIKDTKSDIIFFQRSVPGHDNKMQFESSSYEGYFLACEKERDLFKLILKKEDECGDRSIMFTVQNED", 55.3),
]
